molecular target: Serine hydrolase RBBP9 (Homo sapiens) (UniProt O75884); experiment: inhibition of RBBP9 probe labeling – biochemical, gel-based ABPP, FP-rhodamine, powder samples, orthogonal assay, late-stage follow-up (AID 2269); conditions: recombinant RBBP9, gel-based ABPP, at 20 µM
Sequence (O75884 whole entry, looked up): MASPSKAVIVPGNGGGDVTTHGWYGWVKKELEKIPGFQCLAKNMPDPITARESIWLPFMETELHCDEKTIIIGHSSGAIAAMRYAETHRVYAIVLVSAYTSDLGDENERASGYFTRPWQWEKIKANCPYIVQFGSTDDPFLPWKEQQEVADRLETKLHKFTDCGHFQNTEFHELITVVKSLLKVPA
Calls of active or inactive are those of the source. The rule behind the calls is not given here.
I would appreciate it if you answered using one of these outcomes: active, inactive

Field: example entries. Status: answers known.
# Smiles Notation, Label Class
records = [
    ("N/C(Cc1ccc(Cl)cc1)=N\\OC(=O)C1CCCCC1", "inactive"),
    ("C#CCCC(=O)O/N=C(\\C)c1nccs1", "inactive"),
    ("C/C(=N\\OC(=O)C1CCCCC1)c1nccs1", "active"),
    ("C/C(=N\\OC(=O)c1cccc(Cl)c1)c1nccs1", "active"),
    ("CC(C)=NOC(=O)c1cn(-c2ccccc2)nc1-c1ccc(F)cc1", "inactive"),
    ("C/C(=N\\OC(=O)c1c(F)cccc1F)c1nccs1", "active"),
    ("CC(=NOC(=O)c1cn(-c2ccccc2)nc1-c1ccc(Cl)cc1)c1ccccc1", "inactive"),
    ("CC(=O)ON=C(C)c1cc(C(C)(C)C)cc2c1CCC2(C)C", "inactive"),
]

Challenge: Which outcome did this test record for the compound `NC(=O)C(=NOC(=O)c1ccccc1)c1nc(-c2ccc(Cl)cc2)cs1` ?
Response given: active

Challenge: Which outcome did this test record for the compound `COc1ccc(C(=O)ON=C2C=C(C)C(=O)C(C)=C2)cc1` ?
Response given: active

Challenge: Which outcome did this test record for the compound `C/C(=N\OC(=O)/C=C/c1ccccc1)c1nccs1` ?
Response given: inactive

Challenge: Which outcome did this test record for the compound `CC1=CC(=NOC(=O)/C=C/c2ccccc2)C=C(C)C1=O` ?
Response given: active

Challenge: Which outcome did this test record for the compound `CC(=NOC(=O)c1ccc(-c2ccccc2)cc1)c1cccs1` ?
Response given: inactive

---

# inhibition listing for each entry below
target: UniProtKB O75884; test: inhibition of RBBP9 probe labeling – biochemical, gel-based ABPP, FP-rhodamine, powder samples, orthogonal assay, late-stage follow-up (AID 2269); details: recombinant RBBP9, gel-based ABPP, at 20 µM, active compounds read high
Give your result in % as a bare value.

Before answering, review these 2 worked examples.
# Smiles Notation, Target Or Test System, inhibition [%]
measured = [
    ("C/C(=N\\OC(=O)c1ccccc1O)c1cccs1", "UniProtKB O75884", 0),
    ("C/C(=N\\OC(=O)c1ccc(I)cc1)c1nccs1", "UniProtKB O75884", 66),
]

Attention now turns to another entry.
Challenge: What value of inhibition has been reported for the following compound? `COc1ccc(/C(N)=N/OC(=O)C23CC4CC(CC(C4)C2)C3)cc1OC`
Response given: 28

FYI, the data here is from PubChem BioAssay AID2269.
